target: T1, recombinant human LILRB1-His (human, UniProt Q8NHL6 24-458); assay: MSD ELISA, coated antigen, transfection supernatant
T1 construct: Bought protein; also called LILRB1 protein
T1 sequence (Q8NHL6 24-458 limits assumed): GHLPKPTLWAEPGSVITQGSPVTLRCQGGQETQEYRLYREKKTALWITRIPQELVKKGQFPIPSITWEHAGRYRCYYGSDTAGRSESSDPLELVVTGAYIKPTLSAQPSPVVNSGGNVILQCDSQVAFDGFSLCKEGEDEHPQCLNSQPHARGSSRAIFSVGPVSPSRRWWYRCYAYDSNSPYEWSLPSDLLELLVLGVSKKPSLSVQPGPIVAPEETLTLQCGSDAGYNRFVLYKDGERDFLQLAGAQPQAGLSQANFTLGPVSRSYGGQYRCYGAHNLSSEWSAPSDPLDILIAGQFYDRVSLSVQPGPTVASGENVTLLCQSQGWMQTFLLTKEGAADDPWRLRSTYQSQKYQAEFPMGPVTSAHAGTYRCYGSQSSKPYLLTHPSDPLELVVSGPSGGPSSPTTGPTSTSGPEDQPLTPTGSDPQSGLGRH

- binder: "B21H4-41 (antibody, human IgG4 S228P, kappa, V domains shown, humanized IgG4/kappa, VH4+VL1; transfection supernatant) VH: EVQLVESGGGLVQPGGSLRLSCAASGFSLNTYAMTWVRQAPGKGLEWISIIVASGGTYYASWAKGRFTISRDNAKSSVYLQLTSLTTEDTAVYYCARGGMGSDWGESLDAFDPWGQGTMVTVSS VL: DIQMTQSPSTLSASVGDRVTITCQASGNIYSFLAWYQQKPGKAPKLLIYTASNLETGVPSRFSGSGSGTEYTLTISSLQPDDFATYYCLGGLYSSDVSYAFGPGTKVEIKR"
  EC50 (ng/mL): 5.71
- binder: "B21H4-35 (antibody, human IgG4 S228P, kappa, V domains shown, humanized IgG4/kappa, VH3+VL5; transfection supernatant) VH: EVQLVESGGDLAQPGGSLRLSCAVSGFSLNTYAMTWVRQAPGKGLEWVSIIVASGGTYYASWAKGRFTISRDNSKNTVYLQMTSLRAEDTALYFCARGGMGSDWGESLDAFDPWGQGTLVTVSS VL: DIQMTQTPSTVEASVGGTVTITCQASGNIYSFLAWYQQKPGQPPKLLIYTASNLETGVPSRFSGSGSGTEYTLTISGLQSDDAATYYCLGGLYSSDVSYAFGGGTEVVVKR"
  EC50 (ng/mL): 3.91
- binder: "B21H4-54 (antibody, human IgG4 S228P, kappa, V domains shown, humanized IgG4/kappa, VH5+VL4; transfection supernatant) VH: QVQLEESGGRLVQPGTSLRLSCAVSGFSLNTYAMTWVRQAPGKGLEWIGIIVASGGTYYASWAKGRFTISRDTSKNTLYLQITSLRAEDTATYFCARGGMGSDWGESLDAFDPWGQGTLVTVSS VL: DVVMTQSPSTVSASVGDRVTLTCQASGNIYSFLAWYQQKPGQPPKLLIYTASNLETGVPDRFSGSGSGTDYTLTISSLQADDFATYYCLGGLYSSDVSYAFGQGTKVEIKR"
  EC50 (ng/mL): 4.85
